These entries and their values trace back to patent US20070244048A1.

Molecular target: T1, human NMUR1 (human, UniProt Q9HB89 1-426)
T1 construct: whole, on cells; Stably expressed in cells (FLIPR); also called hNMUR1; human R1
T1 sequence (looked up): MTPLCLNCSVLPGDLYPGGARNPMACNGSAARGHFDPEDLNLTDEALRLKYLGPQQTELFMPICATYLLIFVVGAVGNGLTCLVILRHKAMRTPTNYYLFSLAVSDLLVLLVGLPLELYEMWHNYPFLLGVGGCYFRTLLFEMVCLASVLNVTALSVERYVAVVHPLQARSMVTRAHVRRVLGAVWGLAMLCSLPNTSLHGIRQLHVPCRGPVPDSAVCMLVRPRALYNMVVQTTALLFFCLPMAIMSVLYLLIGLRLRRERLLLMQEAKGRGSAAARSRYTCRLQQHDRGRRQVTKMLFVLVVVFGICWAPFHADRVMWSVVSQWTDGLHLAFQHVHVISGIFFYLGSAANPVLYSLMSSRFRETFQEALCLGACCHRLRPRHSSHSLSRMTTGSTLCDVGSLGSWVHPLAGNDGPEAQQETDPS
Assay: 125I-hNMU-25 displacement, HEK cell membranes
Non-standard residues stand in square brackets, D forms with d. No end group written: not given here. *: point of attachment. Succinimide(1-Et,3-yl) = CCN1C(=O)CC(*)C1=O
measurement-kind: IC50 (nM)
Give the number; nM is assumed, so skip it.

binder	result-value
YF[dL]WRPRN-NH2 (N-terminus assumed; SMILES CC(C)C[C@@H](NC(=O)[C@H](Cc1ccccc1)NC(=O)[C@@H](N)Cc1ccc(O)cc1)C(=O)N[C@@H](Cc1c[nH]c2ccccc12)C(=O)N[C@@H](CCCNC(=N)N)C(=O)N1CCC[C@H]1C(=O)N[C@@H](CCCNC(=N)N)C(=O)N[C@@H](CC(N)=O)C(N)=O) [neuromedin U receptor agonist B]	14

Query binder follows.
The binder Ac-C(Succinimide(1-Et,3-yl))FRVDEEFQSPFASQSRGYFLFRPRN-NH2 [NMU8] showed IC50 equal to 2.4
